Target: Proto-oncogene tyrosine-protein kinase receptor Ret (Homo sapiens, UniProt P07949)
Sequence (P07949 whole entry): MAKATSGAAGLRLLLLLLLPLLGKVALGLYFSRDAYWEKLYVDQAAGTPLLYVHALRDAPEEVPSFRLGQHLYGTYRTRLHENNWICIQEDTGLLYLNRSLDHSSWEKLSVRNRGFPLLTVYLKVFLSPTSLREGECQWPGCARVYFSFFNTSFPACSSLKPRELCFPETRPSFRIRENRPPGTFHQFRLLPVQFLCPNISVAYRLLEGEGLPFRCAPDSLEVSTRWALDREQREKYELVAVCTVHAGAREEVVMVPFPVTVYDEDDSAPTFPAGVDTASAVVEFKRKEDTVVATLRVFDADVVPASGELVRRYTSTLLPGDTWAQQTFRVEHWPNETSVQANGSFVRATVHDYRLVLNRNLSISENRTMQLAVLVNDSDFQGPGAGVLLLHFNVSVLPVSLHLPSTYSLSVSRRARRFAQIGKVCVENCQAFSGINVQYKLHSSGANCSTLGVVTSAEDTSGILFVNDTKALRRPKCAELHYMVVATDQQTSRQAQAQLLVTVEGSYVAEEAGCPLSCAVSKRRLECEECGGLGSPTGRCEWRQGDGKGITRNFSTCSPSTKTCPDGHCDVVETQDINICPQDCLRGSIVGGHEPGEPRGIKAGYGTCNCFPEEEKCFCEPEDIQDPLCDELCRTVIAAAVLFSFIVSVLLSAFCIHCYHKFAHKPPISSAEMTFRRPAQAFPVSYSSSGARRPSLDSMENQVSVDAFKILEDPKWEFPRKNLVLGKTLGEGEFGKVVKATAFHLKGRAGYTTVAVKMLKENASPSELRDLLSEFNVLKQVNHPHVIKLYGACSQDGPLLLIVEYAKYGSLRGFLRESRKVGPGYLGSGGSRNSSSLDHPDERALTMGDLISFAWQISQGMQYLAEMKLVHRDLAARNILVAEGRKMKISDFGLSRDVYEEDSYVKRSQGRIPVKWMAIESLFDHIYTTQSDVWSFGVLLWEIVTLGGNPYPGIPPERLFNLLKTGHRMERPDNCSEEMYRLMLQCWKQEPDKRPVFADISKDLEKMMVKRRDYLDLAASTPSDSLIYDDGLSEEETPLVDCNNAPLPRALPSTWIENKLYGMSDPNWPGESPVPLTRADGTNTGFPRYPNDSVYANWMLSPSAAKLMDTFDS
readout.kind: IC50

1) CC(=O)N1CCN(c2cnc3cc(C(F)(F)F)cc(NCc4cccc([N+](=O)[O-])c4)c3c2)CC1 > 10 µM

====

This listing pairs molecules with measured pIC50.
Test system: NIH3T3
Assay: Antiproliferative activity against mouse NIH/3T3 cells expressing TPR-Met after 72 hrs
Type: functional, cell-based
Conditions: NIH3T3, 72 h
pIC50: −log10 of the molar value.
readout.kind: pIC50

1) O=[N+]([O-])c1cccc(CNc2cc(C(F)(F)F)cc3ncc(N4CCOCC4)cc23)c1 5.40
2) CC(=O)N1CCN(c2cnc3cc(C(F)(F)F)cc(NCc4cccc([N+](=O)[O-])c4)c3c2)CC1 5.70
3) CCOC(=O)CN1CCN(c2cnc3cc(C(F)(F)F)cc(NCc4cccc([N+](=O)[O-])c4)c3c2)CC1 5.23
4) CS(=O)(=O)N1CCN(c2cnc3cc(C(F)(F)F)cc(NCc4cccc([N+](=O)[O-])c4)c3c2)CC1 5.66
5) O=[N+]([O-])c1cccc(CNc2cc(C(F)(F)F)cc3ncc(N4CCN(S(=O)(=O)C5CC5)CC4)cc23)c1 5.85
6) Cc1[nH]c(/C=C2\C(=O)Nc3ccc(S(=O)(=O)N(C)c4cccc(Cl)c4)cc32)c(C)c1C(=O)N1CCN(C)CC1 5.19
7) CCN1CCN(c2cnc3cc(C(F)(F)F)cc(NCc4cccc([N+](=O)[O-])c4)c3c2)CC1 5.59

====

This listing pairs compounds with measured inhibition.
Biological target: Hepatocyte growth factor receptor (Homo sapiens)
Sequence (P08581 whole entry): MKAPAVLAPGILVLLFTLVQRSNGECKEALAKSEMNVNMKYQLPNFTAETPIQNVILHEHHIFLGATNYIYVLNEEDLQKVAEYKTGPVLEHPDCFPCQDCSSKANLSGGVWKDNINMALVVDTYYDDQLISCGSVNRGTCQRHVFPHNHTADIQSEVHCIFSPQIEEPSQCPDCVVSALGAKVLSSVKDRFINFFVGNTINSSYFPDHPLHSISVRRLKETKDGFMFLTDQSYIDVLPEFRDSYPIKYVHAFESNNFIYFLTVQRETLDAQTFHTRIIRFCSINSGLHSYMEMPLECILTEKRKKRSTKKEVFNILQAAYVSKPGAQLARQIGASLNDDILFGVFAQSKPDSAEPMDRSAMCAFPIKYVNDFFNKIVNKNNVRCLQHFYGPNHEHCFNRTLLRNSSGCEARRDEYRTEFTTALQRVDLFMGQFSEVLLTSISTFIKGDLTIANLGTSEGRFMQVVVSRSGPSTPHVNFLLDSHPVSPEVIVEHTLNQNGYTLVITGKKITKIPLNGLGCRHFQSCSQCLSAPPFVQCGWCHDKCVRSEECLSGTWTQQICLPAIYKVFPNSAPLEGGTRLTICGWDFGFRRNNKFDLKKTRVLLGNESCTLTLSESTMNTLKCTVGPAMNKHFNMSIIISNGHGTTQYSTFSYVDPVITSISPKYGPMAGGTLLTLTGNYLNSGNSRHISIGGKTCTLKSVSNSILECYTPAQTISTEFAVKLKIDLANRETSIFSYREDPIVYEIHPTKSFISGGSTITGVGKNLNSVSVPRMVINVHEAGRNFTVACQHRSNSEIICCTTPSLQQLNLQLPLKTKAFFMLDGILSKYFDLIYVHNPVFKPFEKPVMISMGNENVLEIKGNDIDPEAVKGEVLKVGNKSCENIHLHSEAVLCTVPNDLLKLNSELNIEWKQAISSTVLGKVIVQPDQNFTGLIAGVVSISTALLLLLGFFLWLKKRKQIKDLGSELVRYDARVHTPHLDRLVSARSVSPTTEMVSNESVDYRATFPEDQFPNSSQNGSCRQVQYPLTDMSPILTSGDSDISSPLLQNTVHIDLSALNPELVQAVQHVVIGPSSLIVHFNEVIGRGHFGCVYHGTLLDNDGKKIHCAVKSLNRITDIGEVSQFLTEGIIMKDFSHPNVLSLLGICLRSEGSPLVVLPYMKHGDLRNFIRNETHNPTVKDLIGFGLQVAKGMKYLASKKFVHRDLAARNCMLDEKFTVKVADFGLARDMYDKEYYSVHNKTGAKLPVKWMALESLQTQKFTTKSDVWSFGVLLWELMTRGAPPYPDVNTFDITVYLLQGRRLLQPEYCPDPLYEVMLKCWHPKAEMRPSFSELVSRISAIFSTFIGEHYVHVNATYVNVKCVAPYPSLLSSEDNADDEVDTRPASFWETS
Experiment: Inhibition of purified recombinant c-Met at 10 uM after 60 mins by ELISA
readout.kind: inhibition

1) CCN1CCN(c2cnc3cc(NCc4cccc([N+](=O)[O-])c4)cc(C(F)(F)F)c3c2)CC1 46.6%
2) CC(=O)N1CCN(c2cnc3cccc(NC(=S)Nc4cccc([N+](=O)[O-])c4)c3c2)CC1 13.9%
3) CN1CCN(c2cnc3cccc(-c4cccc(O)c4)c3c2)CC1 30.7%
4) CN1CCN(c2cnc3cccc(NC(=S)Nc4cccc([N+](=O)[O-])c4)c3c2)CC1 12.4%
5) CN1CCN(c2cnc3cccc(OC(=O)c4cccn(-c5ccc(F)cc5)c4=O)c3c2)CC1 12.6%
6) CN1CCN(c2cnc3cccc(-c4ccc(F)cc4)c3c2)CC1 29.9%
7) CN1CCN(c2cnc3cccc(NC(=O)Nc4cccc([N+](=O)[O-])c4)c3c2)CC1 25.2%
8) CN1CCN(c2cnc3cc(NCc4cccc([N+](=O)[O-])c4)cc(C(F)(F)F)c3c2)CC1 8.9%
9) CN1CCN(c2cnc3cccc(OC(=O)c4cccc([N+](=O)[O-])c4)c3c2)CC1 7.3%
10) CN1CCN(c2cnc3cccc(OCc4cccc(F)c4)c3c2)CC1 25.8%

====

Assay: Clearance in mouse at 10 mg/kg, iv
Assay type: ADME, organism-based
Set-up: dose 10 mg/kg, route intravenous
Settings: in vivo
This listing pairs compounds with measured clearance.
readout.kind: clearance

1) CC(=O)N1CCN(c2cnc3cc(C(F)(F)F)cc(NCc4cccc([N+](=O)[O-])c4)c3c2)CC1 59.8 mL/min/kg
2) CCOC(=O)CN1CCN(c2cnc3cc(C(F)(F)F)cc(NCc4cccc([N+](=O)[O-])c4)c3c2)CC1 40.5 mL/min/kg

====

This listing pairs molecules with measured Tmax.
Test: Tmax in mouse at 20 mg/kg, po
Assay type: ADME, organism-based
Set-up: dose 20 mg/kg, route oral
Details: in vivo
readout.kind: Tmax

1) CS(=O)(=O)N1CCN(c2cnc3cc(C(F)(F)F)cc(NCc4cccc([N+](=O)[O-])c4)c3c2)CC1 1.33 h
2) CC(=O)N1CCN(c2cnc3cc(C(F)(F)F)cc(NCc4cccc([N+](=O)[O-])c4)c3c2)CC1 3 h
3) CCOC(=O)CN1CCN(c2cnc3cc(C(F)(F)F)cc(NCc4cccc([N+](=O)[O-])c4)c3c2)CC1 0.5 h

====

Target: Hepatocyte growth factor receptor (Homo sapiens)
Assay: Inhibition of purified recombinant c-Met after 60 mins by ELISA
readout.kind: IC50 (nM)

1. COC(=O)N1CCN(c2cnc3cc(C(F)(F)F)cc(NCc4cccc([N+](=O)[O-])c4)c3c2)CC1 43
2. CC(=O)N1CCN(c2cnc3cc(C(F)(F)F)cc(NCc4cccc([N+](=O)[O-])c4)c3c2)CC1 0.95
3. O=[N+]([O-])c1cccc(CNc2cc(C(F)(F)F)cc3ncc(N4CCOCC4)cc23)c1 0.72
4. CC(=O)N1CCN(c2cnc3cccc(NS(=O)(=O)c4cccc([N+](=O)[O-])c4)c3c2)CC1 2560
5. CC(=O)N1CCN(c2cnc3cccc(NCc4cccc([N+](=O)[O-])c4)c3c2)CC1 110
6. CCN1CCN(c2cnc3cc(C(F)(F)F)cc(NCc4cccc(O)c4)c3c2)CC1 230
7. CN1CCN(c2cnc3cccc(-c4cccs4)c3c2)CC1 14300
8. CN1CCN(c2cnc3cccc(OS(=O)(=O)c4cccc([N+](=O)[O-])c4)c3c2)CC1 1200
9. CN1CCN(c2cnc3cccc(-c4cccc([N+](=O)[O-])c4)c3c2)CC1 2300
10. CN1CCN(c2cnc3cccc(OCc4cccc([N+](=O)[O-])c4)c3c2)CC1 140
11. CCOC(=O)CN1CCN(c2cnc3cc(C(F)(F)F)cc(NCc4cccc([N+](=O)[O-])c4)c3c2)CC1 0.77
12. CN1CCN(c2cnc3cccc(NCc4cccc([N+](=O)[O-])c4)c3c2)CC1 166
13. CC(C)(C)OC(=O)N1CCN(c2cnc3cc(C(F)(F)F)cc(NCc4cccc([N+](=O)[O-])c4)c3c2)CC1 10.6
14. CN1CCN(c2cnc3cccc(OCc4cccc(C#N)c4)c3c2)CC1 12300
15. Cc1[nH]c(/C=C2\C(=O)Nc3ccc(S(=O)(=O)N(C)c4cccc(Cl)c4)cc32)c(C)c1C(=O)N1CCN(C)CC1 14
16. CCN1CCN(c2cnc3cc(C(F)(F)F)cc(NCc4ccc(F)cc4)c3c2)CC1 10000
17. CCN1CCN(c2cnc3cc(C(F)(F)F)cc(NCc4cccc([N+](=O)[O-])c4)c3c2)CC1 1.01
18. CN1CCN(c2cnc3cc(C(F)(F)F)cc(NCc4cccc(F)c4)c3c2)CC1 450
19. CS(=O)(=O)N1CCN(c2cnc3cc(C(F)(F)F)cc(NCc4cccc([N+](=O)[O-])c4)c3c2)CC1 0.82
20. O=C(O)CN1CCN(c2cnc3cc(C(F)(F)F)cc(NCc4cccc([N+](=O)[O-])c4)c3c2)CC1 4.4
21. CN1CCN(c2cnc3cccc(NC(=O)c4cccn(-c5ccc(F)cc5)c4=O)c3c2)CC1 5300
22. CN1CCN(c2cnc3cccc(-c4ccco4)c3c2)CC1 12700
23. O=[N+]([O-])c1cccc(CNc2cc(C(F)(F)F)cc3ncc(N4CCNCC4)cc23)c1 2.2

====

Tested on: BaF3
Assay: Antiproliferative activity against mouse BAF3 cells expressing TPR-Met after 72 hrs in absence of IL-3
Type: functional, cell-based
Conditions: BaF3, 72 h
readout.kind: IC50 (nM)

1) Cc1[nH]c(/C=C2\C(=O)Nc3ccc(S(=O)(=O)N(C)c4cccc(Cl)c4)cc32)c(C)c1C(=O)N1CCN(C)CC1 530
2) CCN1CCN(c2cnc3cc(C(F)(F)F)cc(NCc4cccc([N+](=O)[O-])c4)c3c2)CC1 370
3) CC(=O)N1CCN(c2cnc3cc(C(F)(F)F)cc(NCc4cccc([N+](=O)[O-])c4)c3c2)CC1 390
4) CCOC(=O)CN1CCN(c2cnc3cc(C(F)(F)F)cc(NCc4cccc([N+](=O)[O-])c4)c3c2)CC1 1400

====

This listing pairs molecules with measured pIC50.
Tested on: BXPC-3
Experiment: Antiproliferative activity against human BxPC3 cells after 72 hrs
Conditions: BXPC-3, 72 h
pIC50: −log10 of the molar value.
readout.kind: pIC50

1) Cc1[nH]c(/C=C2\C(=O)Nc3ccc(S(=O)(=O)N(C)c4cccc(Cl)c4)cc32)c(C)c1C(=O)N1CCN(C)CC1 4.80
2) CC(=O)N1CCN(c2cnc3cc(C(F)(F)F)cc(NCc4cccc([N+](=O)[O-])c4)c3c2)CC1 4.34

====

Experiment: AUC (0 to infinity) in mouse at 20 mg/kg, po
Format: ADME, organism-based
Design: dose 20 mg/kg, route oral, time infinity
Conditions: plasma
This listing pairs compounds with measured AUC(0-inf).
readout.kind: AUC(0-inf) (ng·h/mL)

1. CC(=O)N1CCN(c2cnc3cc(C(F)(F)F)cc(NCc4cccc([N+](=O)[O-])c4)c3c2)CC1 2100
2. CS(=O)(=O)N1CCN(c2cnc3cc(C(F)(F)F)cc(NCc4cccc([N+](=O)[O-])c4)c3c2)CC1 366
3. CCOC(=O)CN1CCN(c2cnc3cc(C(F)(F)F)cc(NCc4cccc([N+](=O)[O-])c4)c3c2)CC1 700
